Recorded values, source patent US6287840A.

Exercise: for every item that follows, state its recorded pKi.
subject_of_test: Cathepsin B from human placenta (Homo sapiens)
Lab note: report pKi as minus log10 of the concentration in molar units, number only.

Input: Look up pKi for this compound: "CS(=O)(=O)/C=C/[C@H](CCc1ccccc1)NC(=O)[C@H](Cc1ccccc1)NC(=O)N1CCOCC1"
Output: 4.59

Input: Look up pKi for this compound: "O=C(N[C@H](/C=C/S(=O)(=O)c1ccc2ccccc2c1)CCc1ccccc1)[C@H](Cc1ccccc1)NC(=O)N1CCOCC1"
Output: 5.85

Input: Look up pKi for this compound: O=C(N[C@H](/C=C/S(=O)(=O)c1ccccc1)CCc1ccccc1)C(Cc1cc(I)c(O)c(I)c1)NC(=O)N1CCOCC1 (stereo partly drawn)
Output: 5.33

---

property_label: pKi
Lab note: report pKi as minus log10 of the concentration in molar units, number only.

Input: Query pKi on Cathepsin B from human placenta (Homo sapiens, UniProt P07858) for O=C(NCCCC[C@@H](/C=C/S(=O)(=O)c1ccccc1)NC(=O)[C@H](Cc1ccccc1)NC(=O)N1CCOCC1)OCc1ccccc1 [Mu-Phe-Lys(Z)VSPh]
Output: 5.33

Input: Query pKi on Cathepsin B from human placenta (Homo sapiens, UniProt P07858) for Br.Br.N=C(N)NCCC[C@@H](/C=C/S(=O)(=O)c1ccccc1)NC(=O)[C@H](CCCNC(=N)N)NC(=O)N1CCOCC1 [Mu-Arg-ARgVSPh.2HBr, dihydrobromide]
Output: 3.82

Input: Query pKi on Cathepsin B from human placenta (Homo sapiens, UniProt P07858) for Br.N=C(N)NCCC[C@@H](/C=C/S(=O)(=O)c1ccccc1)NC(=O)[C@H](Cc1ccccc1)NC(=O)N1CCOCC1 [Mu-Phe-ArgVSPh.HBr, hydrobromide]
Output: 4.92

---

Exercise: for every item that follows, state its recorded kobs /[I]* (approximate second-order inactivation constant).
subject_of_test: Cloned cathepsin S (Homo sapiens)
Construct: made in house
Sequence (P25774 115-331): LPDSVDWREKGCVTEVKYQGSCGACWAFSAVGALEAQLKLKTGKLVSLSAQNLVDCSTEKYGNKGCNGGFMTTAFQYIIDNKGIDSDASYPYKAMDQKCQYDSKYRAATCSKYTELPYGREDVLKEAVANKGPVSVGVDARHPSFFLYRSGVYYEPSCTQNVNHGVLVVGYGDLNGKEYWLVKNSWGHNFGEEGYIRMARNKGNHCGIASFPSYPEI
method: Inhibition of cathepsin S, Z-Val-Val-Arg-AMC fluorescence progress curves
Format: biochemical
experimental_parameters: values marked *; 25° C., pH 6.5

Input: Look up kobs /[I]* (approximate second-order inactivation constant) for this compound: "O=C(N[C@H](/C=C/S(=O)(=O)c1ccc2ccccc2c1)CCc1ccccc1)[C@H](Cc1ccccc1)NC(=O)N1CCOCC1"
Output: > 5,400,000 M^-1 sec^-1

Input: Look up kobs /[I]* (approximate second-order inactivation constant) for this compound: O=C(NCCCC[C@@H](C=C(F)S(=O)(=O)c1ccccc1)NC(=O)[C@H](Cc1ccccc1)NC(=O)N1CCOCC1)OCc1ccccc1 [Mu-Phe-Lys(Z)fVSPh]
Output: 10,700 M^-1 sec^-1

Input: Look up kobs /[I]* (approximate second-order inactivation constant) for this compound: O=C(N[C@H](/C=C/S(=O)(=O)c1ccccc1)CCc1ccccc1)C(Cc1cc(I)c(O)c(I)c1)NC(=O)N1CCOCC1 (stereo partly drawn)
Output: > 7,300,000 M^-1 sec^-1

Input: Look up kobs /[I]* (approximate second-order inactivation constant) for this compound: Cl.NC(Cc1ccccc1)C(=O)NC(C=CS(=O)(=O)c1ccccc1)CCc1ccccc1 (stereo not drawn) [HCl.Phe-HphVSPh]
Output: 35,000 M^-1 sec^-1

Input: Look up kobs /[I]* (approximate second-order inactivation constant) for this compound: "CC(C)C[C@H](NC(=O)OCc1ccccc1)C(=O)N[C@H](/C=C/S(=O)(=O)c1ccccc1)Cc1ccccc1"
Output: 3,000,000 M^-1 sec^-1

Input: Look up kobs /[I]* (approximate second-order inactivation constant) for this compound: O=C(/C=C/[C@H](CCc1ccccc1)NC(=O)C(Cc1ccccc1)NC(=O)N1CCOCC1)NC(Cc1ccccc1)C(=O)O (stereo partly drawn)
Output: 10,600 M^-1 sec^-1
